Biological target: T1, rhNR10 (recombinant human NR10) (human, UniProt Q8NI17 20-519, limits assumed)
T1 construct: also called IL-31 receptor; IL31RA
T1 sequence: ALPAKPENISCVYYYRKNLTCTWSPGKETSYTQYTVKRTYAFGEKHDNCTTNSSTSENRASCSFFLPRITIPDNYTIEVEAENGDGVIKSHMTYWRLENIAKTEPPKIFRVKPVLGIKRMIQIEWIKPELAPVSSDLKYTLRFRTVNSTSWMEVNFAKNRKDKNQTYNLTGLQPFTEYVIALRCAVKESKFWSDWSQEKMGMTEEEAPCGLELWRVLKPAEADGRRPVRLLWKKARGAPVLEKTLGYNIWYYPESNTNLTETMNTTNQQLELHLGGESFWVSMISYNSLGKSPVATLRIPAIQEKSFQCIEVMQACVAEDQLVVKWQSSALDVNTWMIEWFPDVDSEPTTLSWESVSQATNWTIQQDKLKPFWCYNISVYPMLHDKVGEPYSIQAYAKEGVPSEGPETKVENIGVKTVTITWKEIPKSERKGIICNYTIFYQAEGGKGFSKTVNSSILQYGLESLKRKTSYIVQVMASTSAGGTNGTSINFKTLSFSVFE
Assay: SPR, Biacore T100; antibody captured on Protein A, rhNR10 as analyte
// reported Kd per item
The response must be a number in nM with no trailing unit.

Query string: Request the reported Kd associated with H0La328 (H0-SKSC / La328) (antibody, V domains shown) VH: QVQLVQSGAEVKKPGASVKVSCKASGYTFTGYIMNWVRQAPGQGLEWMGLINPYNGGTSYNQKFKGRVTITADESTSTAYMELSSLRSEDTAVYYCARDGYDDGPYTMDYWGQGTLVTVSS VL: DIQMTQSPSSLSASVGDRVTITCRTSENIYSFLAWYQQKPGKAPKLLIYNAKTLAKGVPSRFSGSGSGTDFTLTISSLQPEDFATYYCQHHYEDPLTFGGGTKVEIKR
Result string: 2.9
